# SYSTEM: NAD-dependent protein deacylase sirtuin-5, mitochondrial (Homo sapiens)
# PROCEDURE TEXT: blockers of sirtuin-5 deacylase activity – biochemical, fluorescence imaging, single point, set 5, primary screen (AID 652115)
# CONDITION: Purified SirT5, succinyl-peptide AMC, trypsin-coupled fluorescence; at 15 µM
The whole screen tested about 330,000 compounds, of which about 3,800 (1.2%) were called active. Cut-off read from the data, not from the text of the source: active = inhibition above about 15%; inconclusive = no clear call, values can overlap the other calls; inactive = below that. Only a selection was taken, and actives are over-represented in it overall.
Outcome codes: TRUE for active, FALSE for inactive

[
  {
    "MOLECULE": "C=CC1=C(C(=O)O)N2C(=O)[C@@H](NC(=O)/C(=N/OCC(=O)O)c3csc(N)n3)[C@H]2SC1",
    "SYSTEM": "NAD-dependent protein deacylase sirtuin-5, mitochondrial (Homo sapiens)",
    "CLASS ASSIGNMENT": "TRUE"
  },
  {
    "MOLECULE": "CN(C)C(=O)[C@@H]1[C@@H](CO)[C@@H]2Cn3c(ccc(-c4ccncc4)c3=O)[C@H]1N2C(=O)NC1CCCC1",
    "SYSTEM": "NAD-dependent protein deacylase sirtuin-5, mitochondrial (Homo sapiens)",
    "CLASS ASSIGNMENT": "FALSE"
  },
  {
    "MOLECULE": "C/C=C/c1ccc2c(c1)O[C@@H](CN(C)S(=O)(=O)c1ccc(F)cc1)[C@@H](C)CN([C@H](C)CO)S2(=O)=O",
    "SYSTEM": "NAD-dependent protein deacylase sirtuin-5, mitochondrial (Homo sapiens)",
    "CLASS ASSIGNMENT": "FALSE"
  },
  {
    "MOLECULE": "Cc1nnc(SCC2=C(C(=O)O)N3C(=O)C(NC(=O)Cn4nc(C)c(Cl)c4C)C3SC2)s1 (centres undefined)",
    "SYSTEM": "NAD-dependent protein deacylase sirtuin-5, mitochondrial (Homo sapiens)",
    "CLASS ASSIGNMENT": "FALSE"
  }
]

====

# SYSTEM: NAD-dependent protein deacylase sirtuin-5, mitochondrial (Homo sapiens)
# PROCEDURE TEXT: blockers of sirtuin-5 deacylase activity – biochemical, fluorescence imaging, single point, set 5, primary screen (AID 652115)
# CONDITION: Purified SirT5, succinyl-peptide AMC, trypsin-coupled fluorescence; at 15 µM; active compounds read high
Out of some 330,000 compounds screened, about 3,800 (1.2%) were called active. The entries come from a sample that favours actives as a whole.
The following molecules are shown together with reported inhibition values.
MEASURED ATTRIBUTE: inhibition (%)

[
  {
    "MOLECULE": "C[C@@H]1CN([C@@H](C)CO)S(=O)(=O)c2ccc(-c3ccc(F)cc3)cc2O[C@@H]1CN(C)CC1CC1",
    "SYSTEM": "NAD-dependent protein deacylase sirtuin-5, mitochondrial (Homo sapiens)",
    "REPORTED": -1.76
  },
  {
    "MOLECULE": "COc1ccc(NC(=O)N2C[C@H](O)COC[C@H]3O[C@@H](CC(=O)NC4Cc5ccccc5C4)CC[C@@H]32)cc1",
    "SYSTEM": "NAD-dependent protein deacylase sirtuin-5, mitochondrial (Homo sapiens)",
    "REPORTED": -1.07
  },
  {
    "MOLECULE": "C[C@H](CO)N1C[C@H](C)[C@H](CN(C)CC2CC2)Oc2cc(-c3ccc(F)cc3)ccc2S1(=O)=O",
    "SYSTEM": "NAD-dependent protein deacylase sirtuin-5, mitochondrial (Homo sapiens)",
    "REPORTED": -4.28
  },
  {
    "MOLECULE": "CCCNC(=O)C[C@H]1CC[C@@H]2[C@H](COC[C@H](O)CN2CC2CCCCC2)O1",
    "SYSTEM": "NAD-dependent protein deacylase sirtuin-5, mitochondrial (Homo sapiens)",
    "REPORTED": -1.9
  },
  {
    "MOLECULE": "CCOC(=O)c1c(NC(=O)C2(C)Cc3ccccc3C(=O)O2)sc2c1CCCC2 (stereo not drawn)",
    "SYSTEM": "NAD-dependent protein deacylase sirtuin-5, mitochondrial (Homo sapiens)",
    "REPORTED": -3.61
  },
  {
    "MOLECULE": "COc1ccccc1OCC(=O)O/N=C(\\N)c1ccccn1",
    "SYSTEM": "NAD-dependent protein deacylase sirtuin-5, mitochondrial (Homo sapiens)",
    "REPORTED": 0.993
  },
  {
    "MOLECULE": "C[C@@H]1CN([C@H](C)CO)C(=O)c2cc(NS(=O)(=O)c3ccc(F)cc3)ccc2O[C@H]1CN(C)Cc1ccncc1",
    "SYSTEM": "NAD-dependent protein deacylase sirtuin-5, mitochondrial (Homo sapiens)",
    "REPORTED": -0.686
  },
  {
    "MOLECULE": "CC(C)CC#Cc1ccc2c(c1)O[C@H](CN(C)C(=O)CC1CC1)[C@@H](C)CN([C@@H](C)CO)S2(=O)=O",
    "SYSTEM": "NAD-dependent protein deacylase sirtuin-5, mitochondrial (Homo sapiens)",
    "REPORTED": 31.5
  },
  {
    "MOLECULE": "CCOC(=O)c1c(NC(=O)C(C)Sc2c[nH]c3ccccc23)sc2c1CCC2 (stereo not drawn)",
    "SYSTEM": "NAD-dependent protein deacylase sirtuin-5, mitochondrial (Homo sapiens)",
    "REPORTED": 0.63
  },
  {
    "MOLECULE": "CC(C)CC#Cc1ccc2c(c1)O[C@@H](CN(C)C(=O)c1ccccc1F)[C@H](C)CN([C@H](C)CO)S2(=O)=O",
    "SYSTEM": "NAD-dependent protein deacylase sirtuin-5, mitochondrial (Homo sapiens)",
    "REPORTED": 6.8
  },
  {
    "MOLECULE": "C[C@@H]1CN([C@@H](C)CO)S(=O)(=O)c2ccc(C#Cc3ccc(F)cc3)cc2O[C@@H]1CN(C)CC1CC1",
    "SYSTEM": "NAD-dependent protein deacylase sirtuin-5, mitochondrial (Homo sapiens)",
    "REPORTED": 15.1
  },
  {
    "MOLECULE": "O=[N+]([O-])c1ccc(N2CCOCC2)cc1",
    "SYSTEM": "NAD-dependent protein deacylase sirtuin-5, mitochondrial (Homo sapiens)",
    "REPORTED": -2.77
  },
  {
    "MOLECULE": "COCC(=O)N(C)C[C@H]1Oc2cc(C#CC(C)C)ccc2S(=O)(=O)N([C@H](C)CO)C[C@@H]1C",
    "SYSTEM": "NAD-dependent protein deacylase sirtuin-5, mitochondrial (Homo sapiens)",
    "REPORTED": 3.27
  },
  {
    "MOLECULE": "O=C(CN1CCOCC1)N[C@@H]1CC[C@@H](CCNC(=O)C2CCCCC2)O[C@@H]1CO",
    "SYSTEM": "NAD-dependent protein deacylase sirtuin-5, mitochondrial (Homo sapiens)",
    "REPORTED": 7.91
  },
  {
    "MOLECULE": "C[C@@H]1CN([C@@H](C)CO)S(=O)(=O)c2ccc(C#CCN(C)C)cc2O[C@@H]1CN(C)C(=O)CC1CC1",
    "SYSTEM": "NAD-dependent protein deacylase sirtuin-5, mitochondrial (Homo sapiens)",
    "REPORTED": 1.11
  },
  {
    "MOLECULE": "C[C@@H]1CN([C@H](C)CO)S(=O)(=O)c2ccc(C#CCN(C)C)cc2O[C@H]1CN(C)C(=O)CC1CC1",
    "SYSTEM": "NAD-dependent protein deacylase sirtuin-5, mitochondrial (Homo sapiens)",
    "REPORTED": 2.43
  },
  {
    "MOLECULE": "CCC(=O)N(C)C[C@H]1Oc2cc(C#CCC(C)C)ccc2S(=O)(=O)N([C@H](C)CO)C[C@H]1C",
    "SYSTEM": "NAD-dependent protein deacylase sirtuin-5, mitochondrial (Homo sapiens)",
    "REPORTED": 0.389
  },
  {
    "MOLECULE": "O=C(Cc1ccc([N+](=O)[O-])cc1)NCCS(=O)(=O)N1CCN(c2ccccc2)CC1",
    "SYSTEM": "NAD-dependent protein deacylase sirtuin-5, mitochondrial (Homo sapiens)",
    "REPORTED": -5.2
  }
]
